Assay: Viability qHTS for spleen associated tyrosine kinase inhibitor (SYKi) drug resistant MV4-11 cells (AID 1963824); note: nearly all actives have a fitted effect of over 35% in size
Settings: SYKi-resistant MV4-11 viability, CellTiter-Glo, 72 h; series mostly up to 45 µM
Results filed as inconclusive are left out. The source made the active and inactive calls. Calls come from the whole dose curve; as a rule, active = well fitted cell-killing curve with a large enough effect; inconclusive = small, poorly fitted or top-dose-only effect, or effect the other way; inactive = no such curve, though single readings can be large or run the other way.
Please state which outcome applies, choosing from active, inactive

Examples from the recorded data:
CCCN1CCO[C@@H]2c3cc(O)ccc3OC[C@H]21	inactive
CCC(CC)(CNC(=O)CCCO)c1cccc(OC)c1	inactive
C=CC(C)(C)c1[nH]c2c(CC=C(C)C)cc(CC=C(C)C)cc2c1C[C@@H]1NC(=O)[C@H](C)NC1=O	inactive

input: Hello, I am checking results. What call was entered for `C[C@H](CCC(=O)O)C[C@H](C)C[C@H](C)C(=O)/C=C(\O)[C@H](C)C[C@H](C)C/C=C/[C@@H](C)[C@@H](O)[C@@H](C)[C@@H](O)C[C@@H]1CC[C@@](C)([C@H]2CC[C@@](C)([C@@H](C)O)O2)O1` ?
output: active

input: Hello, I am checking results. What call was entered for `CCCCCCCCCCCCCCCC[N+](C)(C)C` ?
output: active

====

Experiment: Quantitative highthroughput screen to assess conditional lethalithy of NOMO1 cells grown in RPMI1640 with untreated serum (RPMI+s) (AID 1963876); note: nearly all actives have a fitted effect of over 35% in size;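 for viability: 100% = DMSO wells and 0% = empty wells without cells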
Details: NOMO1 AML cells in RPMI+serum, CellTiter-Glo viability, 48 h; series mostly up to 45.8 µM
Records with an inconclusive call do not appear. Calls of active or inactive are those of the source. Calls follow the shape of the dose curve; as a rule, active = well fitted cell-killing curve with a large enough effect; inconclusive = small, poorly fitted or top-dose-only effect; inactive = flat fitted curve, though single readings scatter.
Please state which outcome applies, choosing from YES (active), NO (inactive)

input: Hello, I am checking results. What call was entered for `Cc1cccc(C)c1NC(=O)CN1CCCC1=O` ?
output: NO

input: Hello, I am checking results. What call was entered for `O=c1[nH]c2ccccc2n1C1CCN(Cc2ccc(-c3[nH]c4cc5ncnc5cc4nc3-c3ccccc3)cc2)CC1` ?
output: NO

input: Hello, I am checking results. What call was entered for `COc1ccc(C(=O)c2c(C)n(CCN3CCOCC3)c3ccccc23)cc1` ?
output: NO

input: Hello, I am checking results. What call was entered for `COc1ccc(C(=O)c2c(C)n(CCN3CCOCC3)c3cc(I)ccc23)cc1` ?
output: YES

input: Hello, I am checking results. What call was entered for `CCNC(=O)C[C@@H]1N=C(c2ccc(Cl)cc2)c2cc(OC)ccc2-n2c(C)nnc21` ?
output: YES

input: Hello, I am checking results. What call was entered for COC1(CS(=O)c2ccccc2)CCN(CCc2c[nH]c3ccc(F)cc23)CC1 (stereo unspecified) ?
output: NO

input: Hello, I am checking results. What call was entered for `CC(C)(C)c1cc(C=C(C#N)C#N)cc(Br)c1O` ?
output: NO

====

Assay: Quantitative highthroughput screen to assess conditional lethalithy of NOMO1 cells grown in RPMI1640 with dialyzed fetal bovine serum (RPMI+ds) (AID 1963877);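 note: 100% = DMSO control wells and 0% = empty wells; nearly all actives have a fitted effect of over 30% in size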
Details: NOMO1 in RPMI+dialyzed FBS viability, ATP luminescence, 48 h; series mostly up to 45.8 µM
Records with an inconclusive call do not appear. Active and inactive are the calls of the source. Calls come from the whole dose curve; as a rule, active = well fitted cell-killing curve with a large enough effect; inconclusive = small, poorly fitted or top-dose-only effect; inactive = flat fitted curve, though single readings scatter.
Please state which outcome applies, choosing from active, inactive

Clc1ccccc1C(c1ccccc1)(c1ccccc1)n1cccn1	inactive
COC[C@H]1OC(=O)c2coc3c2[C@@]1(C)C1=C(C3=O)C2CCC(=O)[C@@]2(C)C[C@H]1OC(C)=O (stereo partly drawn)	inactive
COc1ccc(C(=O)c2c(C)n(CCN3CCOCC3)c3ccccc23)cc1	inactive

input: Hello, I am checking results. What call was entered for `NCC1(CC(=O)O)CCCCC1` ?
output: inactive

input: Hello, I am checking results. What call was entered for `CSCC[C@@H](NC(=O)[C@@H](Cc1ccccc1)NC(=O)CNC(=O)CNC(=O)[C@@H](N)Cc1ccc(O)cc1)C(=O)O` ?
output: inactive

====

Test: Viability qHTS for spleen associated tyrosine kinase inhibitor (SYKi) drug resistant MV4-11 cells (AID 1963824); note: nearly all actives have a fitted effect of over 35% in size
Conditions: SYKi-resistant MV4-11 viability, CellTiter-Glo, 72 h; series mostly up to 45 µM
Results filed as inconclusive are left out. Calls of active or inactive are those of the source. Calls follow the shape of the dose curve; as a rule, active = well fitted cell-killing curve with a large enough effect; inconclusive = small, poorly fitted or top-dose-only effect, or effect the other way; inactive = no such curve, though single readings can be large or run the other way.
Please state which outcome applies, choosing from 1 for active, -1 for inactive

Examples from the recorded data:
c1cncc(OC[C@@H]2CCN2)c1	-1
Oc1ccc2[nH]cc(CCCCN3CC=C(c4ccccc4)CC3)c2c1	1
CC(C)NCC(O)c1ccc([N+](=O)[O-])cc1 (centres undefined)	-1

Now for a further molecule.
input: Hello, I am checking results. What call was entered for `CN1CCc2cc3c(cc2[C@H]1[C@@H]1OC(=O)c2c1ccc1c2OCO1)OCO3` ?
output: 1

====

Assay: Viability qHTS for spleen associated tyrosine kinase inhibitor (SYKi) drug resistant MV4-11 cells (AID 1963824); note: nearly all actives have a fitted effect of over 35% in size; note: potency is the fitted concentration of half-maximal effect
Details: SYKi-resistant MV4-11 viability, CellTiter-Glo, 72 h; series mostly up to 45 µM
Inconclusive results are not listed. Active and inactive are the calls of the source. Calls come from the whole dose curve; as a rule, active = well fitted cell-killing curve with a large enough effect; inconclusive = small, poorly fitted or top-dose-only effect, or effect the other way; inactive = no such curve, though single readings can be large or run the other way.
METRIC_NAME: Potency

Guide cases for Potency, answers given:
CN1C[C@@H]2CN(c3ccc(-c4ccccc4)nn3)C[C@@H]2C1	0.58 µM (active)
CN=C(NS(=O)(=O)c1ccc(Cl)cc1)N1C[C@H](c2ccccc2)C(c2ccc(Cl)cc2)=N1	20.6 µM (active)
CNC(=O)N1N=C(c2ccc(N)cc2)c2cc3c(cc2CC1C)OCO3 (stereo not drawn)	2.31 µM (active)
C=C1C[C@]2(O)[C@@]3(C)CCC(=O)C(C)(C)C3=C(O)C(=O)[C@@]2(C)[C@@H]2C(=O)O[C@@](C)(C(=O)OC)C(=O)[C@@]12C	inactive
CCC1(O)CCC2C3CCC4=CC(=O)CCC4C3CCC21CC (stereo not drawn)	14.6 µM (active)
C[N@@+]1(CC2CC2)CC[C@]23c4c5ccc(O)c4O[C@H]2C(=O)CC[C@@]3(O)[C@H]1C5	inactive
C=C1[C@@H](C)[C@H]2[C@H](Cc3ccccc3)NC(=O)[C@]23[C@H](OC(C)=O)/C=C/[C@](C)(O)C(=O)[C@@H](C)C/C=C/[C@H]3[C@@H]1O	0.731 µM (active)

input: Using known records, supply Potency for `C[C@]12CC[C@H]3[C@@H](CC[C@@]45O[C@@H]4C(O)=C(C#N)C[C@]35C)[C@@H]1CC[C@@H]2O`
output: 6.61 µM (active)

====

Test: Viability qHTS for spleen associated tyrosine kinase inhibitor (SYKi) drug resistant MV4-11 cells (AID 1963824); note: nearly all actives have a fitted effect of over 35% in size
Details: SYKi-resistant MV4-11 viability, CellTiter-Glo, 72 h; series mostly up to 45 µM
Results filed as inconclusive are left out. Calls of active or inactive are those of the source. Calls follow the shape of the dose curve; as a rule, active = well fitted cell-killing curve with a large enough effect; inconclusive = small, poorly fitted or top-dose-only effect, or effect the other way; inactive = no such curve, though single readings can be large or run the other way.
Please state which outcome applies, choosing from yes (1) (active), no (0) (inactive)

CC(C)NCC(O)c1ccc(N)c(C#N)c1 (centres undefined)	no (0)
COc1cccc(C(=O)CCN[C@@H](C)[C@H](O)c2ccccc2)c1	no (0)
CO[C@@H]1C[C@H](O[C@H]2CC[C@@]3(C)C(CCC4C3CC[C@]3(C)[C@@H](C5=CC(=O)OC5)[C@@H](OC(C)=O)CC43O)C2)O[C@H](C)[C@@H]1O[C@H]1O[C@H](CO[C@@H]2O[C@H](CO)[C@@H](O)[C@H](O)[C@H]2O)[C@@H](O)[C@H](O)[C@H]1O (some centres undefined)	yes (1)

Now for a further compound.
input: Hello, I am checking results. What call was entered for `C[C@]12CC[C@H]3[C@@H]([C@H](O)CC4=CC(=O)CC[C@@]43C)[C@@H]1CC[C@@H]2O` ?
output: no (0)

====

Assay: Quantitative highthroughput screen to assess conditional lethalithy of P12 Ichikawa cells grown in RPMI1640 with untreated serum (RPMI+s) (AID 1963881)
Details: ATP luminescence, 48 h; viability; series mostly up to 45.8 µM
Records with an inconclusive call do not appear. Activity calls are given as the source filed them. Calls come from the whole dose curve; as a rule, active = well fitted cell-killing curve with a large enough effect; inconclusive = small, poorly fitted or top-dose-only effect; inactive = flat fitted curve, though single readings scatter.
Please state which outcome applies, choosing from active, inactive

Examples from the recorded data:
CC(N[C@H]1C[C@H]1c1ccccc1)c1ccc2c(c1)OCCO2 (stereo partly specified)	inactive
Cc1ncc(OC[C@@]2(c3cccc(F)c3)C[C@H]2C(=O)Nc2ccc(F)cn2)c(C)n1	inactive
CCC1(c2ccc(N)cc2)CCC(=O)NC1=O (stereo unspecified)	inactive

input: Hello, I am checking results. What call was entered for `C[C@]12COC(=O)C[C@@H]1CC[C@@H]1[C@H]2CC[C@@]2(C)[C@H]1CC[C@]2(C)O` ?
output: inactive

input: Hello, I am checking results. What call was entered for `CCc1c(C(=O)C(N)=O)c2c(OCC(=O)O)cccc2n1Cc1ccccc1` ?
output: inactive

input: Hello, I am checking results. What call was entered for `CC(=Cc1csc(C)n1)[C@@H]1C[C@H]2O[C@]2(C)CCC[C@H](C)[C@@H](O)[C@@H](C)C(=O)C(C)(C)[C@@H](O)CC(=O)O1` ?
output: inactive

input: Hello, I am checking results. What call was entered for CCOP(=O)(OCC)C(C)NC(=O)N(CCCl)N=O (stereo unspecified) ?
output: inactive
